Readings of IC50 for the listed binders
Molecular target: HLA-B*44:03 (human)
Assay: radioligand competition, purified MHC

{"binder": "ELPDEFVVVTV (modifications not checked) [… (SEQ ID NO: 8)]", "bound-operator": ">", "IC50 / nM": 70000}
{"binder": "LEDKAFQL (modifications not checked) [LEDKAFQL (SEQ ID NO: 10)]", "bound-operator": "=", "IC50 / nM": 208}
{"binder": "HADQLTPTW (modifications not checked) [… (SEQ ID NO: 35)]", "bound-operator": "=", "IC50 / nM": 1800}
{"binder": "KAFQLTPIAV (modifications not checked) [… (SEQ ID NO: 13)]", "bound-operator": "=", "IC50 / nM": 16400}
